tested on: His-tagged N-terminal ATP binding domain (amino acid residues 9-236) of HSP90α (Homo sapiens)
assay notes: HSP90 inhibitor binding potency: TRF competition binding assay
test conditions: Table I; read-out: Hsp90 IC50 Range
observed property: IC50

Ask: Need IC50, item COc1ccc(-c2cccnc2Cl)c(C2CC(=O)c3c(C)nc(N)nc3C2)c1 (stereo not drawn)
Reply: < 1 µM

Ask: Need IC50, item Cc1ccnc(-c2ccccc2C2CC(=O)c3c(C)nc(N)nc3C2)c1 (stereo not drawn)
Reply: < 1 µM

Ask: Need IC50, item Cc1ccc(-c2ccccc2C2CC(=O)c3c(C)nc(N)nc3C2)c(F)c1 (stereo not drawn)
Reply: < 1 µM

---
Ask: Need IC50, item Cc1nc(N)nc2c1C(=O)CC(c1cccc(-c3ccncc3)c1)C2 (stereo not drawn)
Reply: > 10 µM

Ask: Need IC50, item Cc1nc(N)nc2c1C(=O)CC(c1ccccc1OC1CCCC1)C2 (stereo not drawn)
Reply: < 1 µM

Ask: Need IC50, item Cc1nc(N)nc2c1C(=O)CC(c1ccccc1-c1cccnn1)C2 (stereo not drawn)
Reply: 1 to 10 µM

Ask: Need IC50, item Cc1ccccc1Oc1ccccc1C1CC(=O)c2c(C)nc(N)nc2C1 (stereo not drawn)
Reply: < 1 µM

Ask: Need IC50, item Cc1nc(N)nc2c1C(=O)CC(c1ccccc1-c1ccc[nH]c1=O)C2 (stereo not drawn)
Reply: < 1 µM

Ask: Need IC50, item Cc1nc(N)nc2c1C(=O)CC(c1ccccc1C1CCCCC1)C2 (stereo not drawn)
Reply: < 1 µM

----------
This listing pairs compounds with measured IC50.
tested on: His-tagged N-terminal ATP binding domain (amino acid residues 9-236) of HSP90α (Homo sapiens, UniProt P07900)
assay notes: HSP90 inhibitor binding potency: TRF competition binding assay
test conditions: Table I; read-out: Hsp90 IC50 Range

Ask: Need IC50, item COc1ccc(-c2ccccc2C2CC(=O)c3c(C)nc(N)nc3C2)cn1 (centres unmarked)
Reply: 1 to 10 µM

Ask: Need IC50, item Cc1cccnc1-c1ccccc1C1CC(=O)c2c(C)nc(N)nc2C1 (centres unmarked)
Reply: 1 to 10 µM

---
Ask: Need IC50, item Cc1nc(N)nc2c1C(=O)CC(c1ccc(F)cc1C1CCCCC1)C2 (centres unmarked)
Reply: 1 to 10 µM

Ask: Need IC50, item Cc1nc(N)nc2c1C(=O)CC(c1ccccc1-c1ccccn1)C2 (centres unmarked)
Reply: < 1 µM

Ask: Need IC50, item Cc1nc(N)nc2c1C(=O)CC(c1ccccc1-c1cnn(C)c1)C2 (centres unmarked)
Reply: 1 to 10 µM

Ask: Need IC50, item Cc1nc(N)nc2c1C(=O)CC(c1ccc(F)cc1-c1ccccc1F)C2 (centres unmarked)
Reply: < 1 µM

Ask: Need IC50, item Cc1nc(N)nc2c1C(=O)CC(c1ccccc1-c1cncnc1)C2 (centres unmarked)
Reply: < 1 µM

----------
tested on: His-tagged N-terminal ATP binding domain (amino acid residues 9-236) of HSP90α (Homo sapiens, UniProt P07900)
assay notes: HSP90 inhibitor binding potency: TRF competition binding assay
test conditions: Table I; read-out: Hsp90 IC50 Range
pIC50: −log10 of the molar value.
This listing pairs compounds with measured pIC50.

Ask: Need pIC50, item Cc1nc(N)nc2c1C(=O)CC(c1ccccc1Oc1ccccc1)C2 (stereo not drawn)
Reply: > 6.00

Ask: Need pIC50, item Cc1nc(N)nc2c1C(=O)CC(c1ccccc1-c1cccnc1Cl)C2 (stereo not drawn)
Reply: > 6.00

Ask: Need pIC50, item Cc1ccccc1-c1ccccc1C1CC(=O)c2c(C)nc(N)nc2C1 (stereo not drawn)
Reply: > 6.00

Ask: Need pIC50, item Cc1nc(N)nc2c1C(=O)CC(c1ccccc1Oc1cccc(F)c1)C2 (stereo not drawn)
Reply: > 6.00

Ask: Need pIC50, item COc1ncccc1-c1ccccc1C1CC(=O)c2c(C)nc(N)nc2C1 (stereo not drawn)
Reply: > 6.00

---
Ask: Need pIC50, item Cc1nc(N)nc2c1C(=O)CC(c1cccc(Br)c1)C2 (stereo not drawn)
Reply: 5.00 to 6.00

Ask: Need pIC50, item Cc1nc(N)nc2c1C(=O)CC(c1nccn1Cc1ccccc1)C2 (stereo not drawn)
Reply: > 6.00

Ask: Need pIC50, item COc1cccc(Br)c1C1CC(=O)c2c(C)nc(N)nc2C1 (stereo not drawn)
Reply: 5.00 to 6.00

Ask: Need pIC50, item Cc1nc(N)nc2c1C(=O)CC(c1ccccc1-c1cnccc1Cl)C2 (stereo not drawn)
Reply: > 6.00

----------
tested on: His-tagged N-terminal ATP binding domain (amino acid residues 9-236) of HSP90α (Homo sapiens, UniProt P07900)
assay notes: HSP90 inhibitor binding potency: TRF competition binding assay
test conditions: Table II; read-out: Hsp90 IC50 Range
Experimental: HSP90 Inhibitor Binding Potency: TRF Binding Assay In this example, the binding potency of HSP90 inhibitors as measured by a TRF binding assay is described. TRF competition binding assays were performed to determine the binding potency (IC50 values) of HSP90 inhibitors. […] After gentle shaking for 10 minutes, the plates were read in VICTOR for europium counts.
observed property: IC50

Past entries and their recorded results:
Ask: Need IC50, item COc1cccc(Cc2nc(N)nc3c2C(=O)CC(c2ccccc2)C3)c1 (stereo not drawn)
Reply: 1000 to 10000 nM

Ask: Need IC50, item Cc1nc(N)nc2c1C(=O)CC(c1ccc(F)cc1OC1CCCC1)C2 (stereo not drawn) [Compound 255]
Reply: < 1000 nM

Ask: Need IC50, item Cc1nc(N)nc2c1C(=O)CC(c1ccc(Cl)cc1-c1cccnc1F)C2 (stereo not drawn)
Reply: < 1000 nM

Ask: Need IC50, item COc1ccccc1Oc1cc(F)ccc1C1CC(=O)c2c(C)nc(N)nc2C1 (stereo not drawn)
Reply: 1000 to 10000 nM

Consider now this further molecule.
Ask: Need IC50, item CNc1cncc(-c2cc(F)ccc2C2CC(=O)c3c(C)nc(N)nc3C2)n1 (stereo not drawn)
Reply: < 1000 nM

----------
tested on: His-tagged N-terminal ATP binding domain (amino acid residues 9-236) of HSP90α (Homo sapiens, UniProt P07900)
assay notes: HSP90 inhibitor binding potency: TRF competition binding assay
test conditions: Table II; read-out: Hsp90 IC50 Range
This listing pairs molecules with measured IC50.

Ask: Need IC50, item Cc1nc(N)nc2c1C(=O)CC(c1nccn1Cc1ccccn1)C2 (stereo not shown)
Reply: > 10000 nM

---
Ask: Need IC50, item Cc1nc(N)nc2c1C(=O)CC(c1ccc(F)cc1OCC1CCCC1)C2 (stereo not shown)
Reply: < 1000 nM

Ask: Need IC50, item COc1cccc(-c2scnc2[C@H]2CC(=O)c3c(C)nc(N)nc3C2)n1
Reply: 1000 to 10000 nM

Ask: Need IC50, item COc1cccc(-c2cc(F)ccc2[C@@H]2CC(=O)c3c(C)nc(N)nc3C2)n1
Reply: < 1000 nM

----------
tested on: His-tagged N-terminal ATP binding domain (amino acid residues 9-236) of HSP90α (Homo sapiens, UniProt P07900)
assay notes: HSP90 inhibitor binding potency: TRF competition binding assay
test conditions: Table II; read-out: Hsp90 IC50 Range
This listing pairs molecules with measured IC50.

Ask: Need IC50, item COc1cccc(-c2ccccc2C2CC(=O)c3c(nc(N)nc3C(F)(F)F)C2)n1 (centres unmarked) [Compound 216]
Reply: < 1000 nM

Ask: Need IC50, item COc1cccc(-c2cccc(F)c2C2CC(=O)c3c(C)nc(N)nc3C2)n1 (centres unmarked) [Compound 220]
Reply: < 1000 nM

Ask: Need IC50, item Cc1nc(N)nc2c1C(=O)CC(c1nccn1-c1ccccc1F)C2 (centres unmarked) [Compound 188]
Reply: < 1000 nM

Ask: Need IC50, item CCc1nc(N)nc2c1C(=O)CC(c1ccccc1)C2 (centres unmarked) [Compound 210]
Reply: > 10000 nM

Ask: Need IC50, item C#CCCOc1cc(F)ccc1C1CC(=O)c2c(C)nc(N)nc2C1 (centres unmarked) [Compound 192]
Reply: < 1000 nM

---
Ask: Need IC50, item CC(=O)c1ccc(-c2cc(F)ccc2[C@@H]2CC(=O)c3c(C)nc(N)nc3C2)s1 [Compound 326]
Reply: 1000 to 10000 nM

----------
This listing pairs compounds with measured IC50.
tested on: His-tagged N-terminal ATP binding domain (amino acid residues 9-236) of HSP90α (Homo sapiens)
assay notes: HSP90 inhibitor binding potency: TRF competition binding assay
test conditions: Table II; read-out: Hsp90 IC50 Range

Ask: Need IC50, item Cc1nc(N)nc2c1C(=O)CC(c1ccc(F)cc1-c1cccc(Cl)n1)C2 (stereo not shown)
Reply: < 1 µM

Ask: Need IC50, item Cc1nc(N)nc2c1C(=O)CC(c1ccccc1S(=O)(=O)N(C)C(C)C)C2 (stereo not shown)
Reply: 1 to 10 µM

Ask: Need IC50, item Cc1nc(N)nc2c1C(=O)CC(c1ccc(F)cc1OCC(C)C)C2 (stereo not shown)
Reply: < 1 µM

Ask: Need IC50, item COc1ccc(Cc2nc(N)nc3c2C(=O)CC(c2ccccc2)C3)cc1 (stereo not shown)
Reply: 1 to 10 µM

Ask: Need IC50, item COc1nc(-n2ccnc2C2CC(=O)c3c(C)nc(N)nc3C2)ncc1C (stereo not shown)
Reply: < 1 µM

Ask: Need IC50, item COc1cccc(-n2ccnc2C2CC(=O)c3c(C)nc(N)nc3C2)c1 (stereo not shown)
Reply: 1 to 10 µM

Consider now this further compound.
Ask: Need IC50, item COc1cncc(-c2cc(F)ccc2C2CC(=O)c3c(C)nc(N)nc3C2)n1 (stereo not shown)
Reply: < 1 µM

Measured values drawn from patent US20070027150A1 for this set.
